# credit: patent US20240366778A1

# tested target: T1, Human Nectin-4 Protein, His Tag (human, UniProt Q96NY8 32-349)
# T1 construct: not shown: His tag
# T1 sequence (looked up): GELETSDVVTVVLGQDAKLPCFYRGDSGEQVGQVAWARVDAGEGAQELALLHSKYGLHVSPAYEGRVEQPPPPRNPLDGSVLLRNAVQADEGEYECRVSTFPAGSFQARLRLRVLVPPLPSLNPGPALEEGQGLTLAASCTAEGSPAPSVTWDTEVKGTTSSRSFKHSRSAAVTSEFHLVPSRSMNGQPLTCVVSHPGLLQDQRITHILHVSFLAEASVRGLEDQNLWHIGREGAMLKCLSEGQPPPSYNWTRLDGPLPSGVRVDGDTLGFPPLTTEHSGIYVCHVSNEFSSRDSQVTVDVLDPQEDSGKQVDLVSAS
# experiment summary: ELISA, Nectin-4 protein with antibody dilutions, goat anti-human IgG secondary antibody
The entries below are paired with their reported EC50.
API: value field is a number in ng/mL; no unit string.

Past entries and their recorded results:
humanized antibody SWY2001-Ab3 (antibody, human IgG1, kappa, V domains shown, Full-length IgG1, kappa) VH: QVQLVQSGAEVKKPGASVKVSCKASGYTFTSYYIHWVRQAPGQRLEWMGWIYPGNVNTKYNENFRDRVTITRDTSASTAYMELSSLRSEDTAVYYCARGIYYFDYWGQGTLVTVSS VL: AIQMTQSPSSLSASVGDRVTITCKASQSVNNDVAWYQQKPGKAPKLLIYYASNRDTGVPSRFSGSGSGTDFTLTISSLQPEDFATYFCHQDYSSPFTFGGGTKVEIKR ... 1.02
humanized antibody SWY2001-Ab2 (antibody, human IgG1, kappa, V domains shown, Full-length IgG1, kappa) VH: QVQLVQSGAEVKKPGASVKVSCKASGYTFTSYYIHWVRQAPGQRLEWMGWIYPGNVNTKYNENFRDRVTITRDTSASTAYMELSSLRSEDTAVYYCARGIYYFDYWGQGTLVTVSS VL: AIQMTQSPSSLSASVGDRVTITCKASQSVNNDVAWYQQKPGKAPKLLIYYASNRDTGVPSRFSGSGSGTDFTLTISSLQAEDLAVYFCHQDYSSPFTFGGGTKVEIKR ... 1.13
PADCEV (antibody, INN chains, looked up, V domains shown, vedotin (MMAE) payload) VH: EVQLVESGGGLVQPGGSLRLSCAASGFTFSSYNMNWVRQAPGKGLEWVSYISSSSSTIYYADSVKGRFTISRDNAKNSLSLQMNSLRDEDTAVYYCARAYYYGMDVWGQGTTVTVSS VL: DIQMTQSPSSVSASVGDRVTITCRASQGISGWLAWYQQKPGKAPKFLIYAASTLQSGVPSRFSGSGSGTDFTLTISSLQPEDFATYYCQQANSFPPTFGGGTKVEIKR ... 0.877

Next, consider the following binder.
Task: Item under review: humanized antibody SWY2001-Ab1 (antibody, human IgG1, kappa, V domains shown) VH: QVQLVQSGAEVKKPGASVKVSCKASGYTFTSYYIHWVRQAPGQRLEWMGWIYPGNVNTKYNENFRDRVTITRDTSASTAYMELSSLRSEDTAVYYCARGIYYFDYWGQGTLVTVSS VL: IIQMTQSPKFLSASVGDRVTITCKASQSVNNDVAWYQQKPGQSPKLLIYYASNRDTGVPDRFSGSGSGTDFTLTISSLQPEDFATYFCHQDYSSPFTFGGGTKVEIKR . Reported EC50?
Result: 1.21
